Listing of recorded ΔTm by entry.
molecular target: Serine/threonine-protein kinase OSR1 (Homo sapiens)
Give the quantity in °C, number only.

{"MOLECULE": "Cc1ccc(NC(=O)c2ccc(CN3CCN(C)CC3)cc2)cc1Nc1nccc(-c2cccnc2)n1", "SUBJECT_OF_TEST": "Serine/threonine-protein kinase OSR1 (Homo sapiens)", "ΔTm / °C": 0.7}
{"MOLECULE": "O=C1Cc2c([nH]c3ccc(Br)cc23)-c2ccccc2N1", "SUBJECT_OF_TEST": "Serine/threonine-protein kinase OSR1 (Homo sapiens)", "ΔTm / °C": 1.8}
{"MOLECULE": "Cc1nc(N)sc1-c1ccnc(Nc2cccc([N+](=O)[O-])c2)n1", "SUBJECT_OF_TEST": "Serine/threonine-protein kinase OSR1 (Homo sapiens)", "ΔTm / °C": 1.2}
{"MOLECULE": "C/C(O)=C(\\C#N)C(=O)Nc1cc(Br)ccc1Br", "SUBJECT_OF_TEST": "Serine/threonine-protein kinase OSR1 (Homo sapiens)", "ΔTm / °C": 1.1}
{"MOLECULE": "Cc1[nH]c(/C=C2\\C(=O)Nc3ccc(S(=O)(=O)N(C)c4cccc(Cl)c4)cc32)c(C)c1C(=O)N1CCN(C)CC1", "SUBJECT_OF_TEST": "Serine/threonine-protein kinase OSR1 (Homo sapiens)", "ΔTm / °C": 1.6}

Task: I would be grateful if you could share the reported ΔTm for `CN(C)CCCn1cc(C2=C(c3c[nH]c4ccccc34)C(=O)NC2=O)c2ccccc21` .
Result: 2.4

Task: Moving on to `CC(C)c1cc(/C=C(\C#N)C(=O)NCCCc2ccccc2)cc(C(C)C)c1O`
Result: 0.9

Task: Likewise for `CCOc1cc2ncnc(Nc3cccc(Br)c3)c2cc1OCC` ?
Result: 1

###

Heads up, these compounds all have ΔTm values measured for Ribosomal protein S6 kinase alpha-3 (Homo sapiens).
Numeric answer only, unit °C assumed.

{"MOLECULE": "CC[C@H](CO)Nc1nc(NCc2ccccc2)c2ncn(C(C)C)c2n1", "MEASURE_UNIT": "°C", "RECORDED_MEASUREMENT": 1.4}
{"MOLECULE": "O=C1Nc2ccc(I)cc2/C1=C1/Nc2ccccc2/C1=N\\O", "MEASURE_UNIT": "°C", "RECORDED_MEASUREMENT": 3.3}
{"MOLECULE": "O=Nc1c(-c2c(O)[nH]c3ccccc23)[nH]c2ccccc12", "MEASURE_UNIT": "°C", "RECORDED_MEASUREMENT": 0}
{"MOLECULE": "c1ccc(-c2n[nH]c3c2oc2ccccc23)cc1", "MEASURE_UNIT": "°C", "RECORDED_MEASUREMENT": 1.1}
{"MOLECULE": "NC(=O)c1ccc2[nH]c(-c3ccc(Oc4ccc(Cl)cc4)cc3)nc2c1", "MEASURE_UNIT": "°C", "RECORDED_MEASUREMENT": 1}
{"MOLECULE": "Cn1cc(/C=C2/C(=O)Nc3ccc(S(N)(=O)=O)cc32)c2ccccc21", "MEASURE_UNIT": "°C", "RECORDED_MEASUREMENT": 4.8}

Task: GET /values?readout=ΔTm&item= `CCOc1cc(/C=C(\C#N)C(N)=O)cc(CSc2ccccc2)c1O`
Result: 0.1

Task: Another compound to check: `O=C1Nc2ccccc2/C1=C1/Nc2ccccc2/C1=N\O`
Result: 4.1

Task: Okay, and `COc1ccc(S(=O)(=O)N(CCO)c2ccccc2CN(C)C/C=C/c2ccc(Cl)cc2)cc1` ?
Result: 0.7
